Below, each of the molecules is paired with its reported half-life at 5 μM value.
Experiment: Compound stability in human liver microsomes
Format: in vitro ADME
Conditions: pH 7.4; human liver microsomes 0.5 mg protein/mL, compound 5 μM, NADPH, 37° C.; read-out: Human T1/2
Expressed in min, but write only the number.

Cc1nnc(-c2c(N)ncnc2N[C@@H](C)c2nc3cccc(C#CC(C)(C)O)c3c(=O)n2-c2ccccc2)o1 [Example 2] | 452

Ask: Please supply the value of reported half-life at 5 μM for the item C#Cc1cccc2nc([C@H](C)Nc3ncnc(N)c3-c3noc(C)n3)n(C3CC3)c(=O)c12 [Example 51]
Reply: 14.8

Ask: Please supply the value of reported half-life at 5 μM for the item C#Cc1cccc2nc([C@H](C)Nc3ncnc(N)c3-c3nnc(C)o3)n(C3CC3)c(=O)c12 [Example 50]
Reply: 36.5

Ask: Please supply the value of reported half-life at 5 μM for the item C#Cc1cccc2nc([C@H](C)Nc3ncnc(N)c3-c3ncn(C)n3)n(-c3ccccc3)c(=O)c12 [Example 49]
Reply: 6.7

###

Molecular target: hERG channels (Homo sapiens (Human), UniProt Q12809)
Sequence (Q12809 whole entry): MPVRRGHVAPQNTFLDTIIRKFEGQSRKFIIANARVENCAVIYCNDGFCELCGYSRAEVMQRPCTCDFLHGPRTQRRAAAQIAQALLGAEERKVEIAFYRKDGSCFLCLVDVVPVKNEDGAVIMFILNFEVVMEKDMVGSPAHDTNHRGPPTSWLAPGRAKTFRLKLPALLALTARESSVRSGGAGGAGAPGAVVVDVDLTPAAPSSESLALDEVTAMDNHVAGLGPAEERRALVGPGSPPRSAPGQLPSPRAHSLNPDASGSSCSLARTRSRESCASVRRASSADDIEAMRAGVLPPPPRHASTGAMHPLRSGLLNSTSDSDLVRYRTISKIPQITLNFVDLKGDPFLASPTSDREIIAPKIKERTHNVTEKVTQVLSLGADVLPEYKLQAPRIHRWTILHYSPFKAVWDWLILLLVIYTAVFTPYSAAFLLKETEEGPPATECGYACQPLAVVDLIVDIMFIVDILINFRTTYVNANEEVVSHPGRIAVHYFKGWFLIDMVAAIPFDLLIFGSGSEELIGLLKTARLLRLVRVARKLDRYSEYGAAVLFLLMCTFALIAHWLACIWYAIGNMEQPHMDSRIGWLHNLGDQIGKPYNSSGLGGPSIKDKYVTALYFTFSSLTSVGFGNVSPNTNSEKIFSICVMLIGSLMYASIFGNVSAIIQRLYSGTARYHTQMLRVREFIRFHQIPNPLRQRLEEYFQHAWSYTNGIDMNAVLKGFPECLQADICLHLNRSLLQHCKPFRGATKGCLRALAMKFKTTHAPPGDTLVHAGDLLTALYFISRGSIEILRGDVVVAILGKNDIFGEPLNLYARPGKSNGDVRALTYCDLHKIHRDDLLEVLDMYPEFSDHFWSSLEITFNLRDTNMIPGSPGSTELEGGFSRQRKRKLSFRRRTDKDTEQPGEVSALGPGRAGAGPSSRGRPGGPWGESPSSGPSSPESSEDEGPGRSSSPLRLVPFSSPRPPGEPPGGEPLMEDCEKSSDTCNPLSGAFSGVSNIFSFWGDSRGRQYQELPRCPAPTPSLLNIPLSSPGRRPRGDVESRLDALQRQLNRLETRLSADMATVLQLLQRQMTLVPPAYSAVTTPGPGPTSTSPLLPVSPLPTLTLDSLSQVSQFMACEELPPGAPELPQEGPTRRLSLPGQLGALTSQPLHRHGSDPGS
Test: hERG assay, automated QPatch procedure
Format: cell-based
RESULT TYPE: IC50

CC#Cc1cccc2cc([C@H](C)Nc3ncnc(N)c3-c3nc(C)no3)n(-c3ccccc3)c(=O)c12 | > 30 µM

Lab note: next compound to report on.
Ask: Return reported IC50 for target or system hERG channels (Homo sapiens (Human), UniProt Q12809), item `Cc1noc(-c2c(N)ncnc2N[C@@H](C)c2nc3cccc(C#CCO)c3c(=O)n2-c2ccccc2)n1` .
Reply: > 30 µM

###

Assay: Compound stability in human liver microsomes
Type: in vitro ADME
Conditions: liver microsomes, pH 7.4; in vivo CLint extrapolated from human liver microsome incubation
RESULT TYPE: CLint scaled at 5 μM (mL/min/kg)
Expressed in mL/min/kg, but write only the number.

For orientation, consider the following solved cases.
C#Cc1cccc2nc([C@H](C)Nc3ncnc(N)c3-c3nnn(C)n3)n(-c3ccccc3)c(=O)c12 [Example 48] | 311
Cc1nc(-c2c(N)ncnc2N[C@@H](C)c2nc3cccc(C#CC(C)O)c3c(=O)n2-c2ccccc2)no1 (some centres unmarked) [Example 6] | 24.2
C#Cc1cccc2nc([C@H](C)Nc3ncnc(N)c3-c3nc(C)no3)n(-c3ccccc3)c(=O)c12 [Example 44] | 297
C[C@H](Nc1ncnc(N)c1-c1nnn(C)n1)c1nc2cccc(C#CC(C)(C)O)c2c(=O)n1-c1ccccc1 [Example 4] | 5.8
Cc1noc(-c2c(N)ncnc2N[C@@H](C)c2nc3cccc(C#CCO)c3c(=O)n2-c2ccccc2)n1 [Example 34] | 36.9
Cc1nnc(-c2c(N)ncnc2N[C@@H](C)c2nc3cccc(C#CC(C)O)c3c(=O)n2-c2ccccc2)o1 (some centres unmarked) [Example 7] | 6.34
C[C@H](Nc1ncnc(N)c1-c1ncn(C)n1)c1nc2cccc(C#CCO)c2c(=O)n1-c1ccccc1 [Example 46] | 49.2
CC#Cc1cccc2nc([C@H](C)Nc3ncnc(N)c3-c3nc(C)no3)n(-c3ccccc3)c(=O)c12 [Example 9] | 80.5

Lab note: next compound to report on.
Ask: Please supply the value of reported CLint scaled at 5 μM for the item C#Cc1cccc2nc([C@H](C)Nc3ncnc(N)c3-c3nnn(C)n3)n(C3CC3)c(=O)c12 [Example 52]
Reply: 89.4
